assay.target: glucagon receptor (UniProt P47871 26-477, limits assumed)
Sequence (P47871 26-477 limits assumed): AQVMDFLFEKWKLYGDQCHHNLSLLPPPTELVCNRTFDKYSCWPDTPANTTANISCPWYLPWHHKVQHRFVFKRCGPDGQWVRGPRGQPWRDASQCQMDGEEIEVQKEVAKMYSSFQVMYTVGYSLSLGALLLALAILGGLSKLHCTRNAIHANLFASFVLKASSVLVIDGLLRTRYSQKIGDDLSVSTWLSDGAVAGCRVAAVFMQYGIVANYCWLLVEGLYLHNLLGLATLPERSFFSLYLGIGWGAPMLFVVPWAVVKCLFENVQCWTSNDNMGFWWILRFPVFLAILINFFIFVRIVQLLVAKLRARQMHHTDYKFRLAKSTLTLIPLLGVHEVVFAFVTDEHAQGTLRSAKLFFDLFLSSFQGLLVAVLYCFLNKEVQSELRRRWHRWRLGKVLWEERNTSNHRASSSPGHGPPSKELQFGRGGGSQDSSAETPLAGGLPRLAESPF
measurement.description: cell-based or functional assay
Non-standard residues stand in square brackets, D forms with d. Groups on a side chain read outwards from the residue. No end group written: not given here. *: point of attachment. PEG 40 kDa = 40 kDa polyethylene glycol attached to Cys; Stearoyl = CCCCCCCCCCCCCCCCCC(=O)*; Palmitoyl = CCCCCCCCCCCCCCCC(=O)*; Aib = CC(C)(N)C(=O)O
Could you please report measured pEC50 for the items listed next?
Numbers only, as −log10 of the molar value.

{"binder": "H[Aib]QGTFTSDK(Palmitoyl)SKYLDEQAAKEFIC(PEG 40 kDa)WLMNT-NH2 [C16 acylated Glucagon analog peptide (SEQ ID NO: 536)]", "pEC50": 7.76}

Hi team, please reply with pEC50 for each item in this list.
1. HSQGTFTSDK([Trp-Palmitoyl])SKYLDERRAKDFVC(PEG 40 kDa)WLMNT-NH2 [E16 K20-glucagon-NH2 with K10-W-C16 and C24-40K PEG (SEQ ID NO: 546)]
2. HSQGTFTSDK(Stearoyl)SKYLDERRAKDFVC(PEG 40 kDa)WLMNT-NH2 [E16 K20-glucagon-NH2 with K10-C18 and C24-40K PEG (SEQ ID NO: 547)]

Ans:
1. 9.27
2. 9.08
